Run description: Steroid Solubility Test
Assay type: physicochemical
Run conditions: organic solvent or mixture; solvent Benzyl alcohol; 20°C; read-out: maximum weight that could completely dissolve in 1 ml of solvent
Protocol: This test was conducted to determine the maximum weight of Steroids A and B that could completely dissolve in 1 ml of various solvents at a temperature of 20°C.
Observation type: solubility

What solubility value was documented for this molecule, CCOC(=O)O[C@]1(C(=O)OCCl)CC[C@H]2[C@@H]3CCC4=CC(=O)C=C[C@]4(C)[C@H]3[C@@H](O)C[C@@]21C ?
> 25 mg/mL

* * *

Run description: Steroid Solubility Test
Assay type: physicochemical
Run conditions: organic solvent or mixture; solvent Propylene glycol; 20°C; read-out: maximum weight that could completely dissolve in 1 ml of solvent
Method: This test was conducted to determine the maximum weight of Steroids A and B that could completely dissolve in 1 ml of various solvents at a temperature of 20°C.
Observation type: solubility (µg/mL)
I only need the number, in µg/mL, no unit after it.

GET /values?readout=solubility&item= CCOC(=O)O[C@]1(C(=O)OCCl)CC[C@H]2[C@@H]3CCC4=CC(=O)C=C[C@]4(C)[C@H]3[C@@H](O)C[C@@]21C [Steroid A]
2700
